B1: EPB41L3 (parent)
chain: FRFAPNHTKELEDKVIELHKSHRG

Variants of: B1
Test Name: protein stability index of a GFP-peptide fusion (GPS, HEK-293T) (PSI 1-6); higher = more stable;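 also: lentivirally expressed fusions sorted by FACS into six bins by GFP to DsRed ratio, PSI derived from sequencing read proportions per bin multiplied by bin number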
Measurement Parameters: c terminus: a fixed tail appended
# protein stability index annotations
Readout Kind: protein stability index

variant_designation=P5F readout_kind="protein stability index" numeric_readout=1.24
variant_designation=N6P readout_kind="protein stability index" numeric_readout=2.23
variant_designation=E10N readout_kind="protein stability index" numeric_readout=1.41
variant_designation=R23Q readout_kind="protein stability index" numeric_readout=2.87
variant_designation=E17A readout_kind="protein stability index" numeric_readout=1.74
variant_designation=F3T readout_kind="protein stability index" numeric_readout=3.99
variant_designation=H19Q readout_kind="protein stability index" numeric_readout=2.66
variant_designation=E17V readout_kind="protein stability index" numeric_readout=2.55
variant_designation=H19L readout_kind="protein stability index" numeric_readout=2.12
variant_designation=G24S readout_kind="protein stability index" numeric_readout=1.94
variant_designation=E12Y readout_kind="protein stability index" numeric_readout=1.22
variant_designation=E17L readout_kind="protein stability index" numeric_readout=1.67
variant_designation=L11V readout_kind="protein stability index" numeric_readout=2.25
variant_designation=S21W readout_kind="protein stability index" numeric_readout=1.41
variant_designation=V15T readout_kind="protein stability index" numeric_readout=2.47
variant_designation=R23K readout_kind="protein stability index" numeric_readout=2.37
variant_designation=K20W readout_kind="protein stability index" numeric_readout=1.54
variant_designation=T8S readout_kind="protein stability index" numeric_readout=1.92
variant_designation=P5N readout_kind="protein stability index" numeric_readout=2.24
variant_designation=E12I readout_kind="protein stability index" numeric_readout=1.27
variant_designation=L11Y readout_kind="protein stability index" numeric_readout=2.05
variant_designation=K14M readout_kind="protein stability index" numeric_readout=2.01
